Reported Ki by item:
# SYSTEM: aminopeptidase from barley seeds
# EXPERIMENT NOTES: Inhibition of aminopeptidase from barley seeds (L-Leu-pNa hydrolysis, absorbance at 405 nm)
# Type: biochemical, barley (Hordeum vulgare L.)
# CONDITION DETAILS: racemic compounds; apparent Ki ± SD; 50 mM Tris-HCl pH 8.0, 37 °C, substrate L-Leu-pNa; in = inactive at a concentration of 1 mM; read-out: Barley Seed AP Ki + SD
Record the value in µM, omitting the unit from your answer.

NC(c1ccc(F)cc1)P(=O)(O)O (stereo not drawn) [Compound 3]; 1100

In: Look up Ki: NC(c1ccc(F)cc1F)P(=O)(O)O (stereo not drawn) [Compound 4]
Out: 1420

In: Look up Ki: NC(c1ccc(C(F)(F)F)cc1)P(=O)(O)O (stereo not drawn) [Compound 10]
Out: 686
